- Protocol: Drug repurposing screens with cells derived from glioblastoma tumor samples (AID 1345199); note: % is set by controls: 0 for no effect and ±100 for the full control effect; nearly all actives have a fitted effect of over 40% in size
- Settings: GBM patient neurospheres viability, ATP luminescence, 48 h; at 46.1 µM (top of the series); tumour line C
Inconclusive results are not listed.
Reported activity, negative = cell killing values for the following compounds.
The figure you give is taken to be in %; do not add the unit.

// query What does the record list as activity, negative = cell killing for "CCOC(=O)N1CCC(=C2c3ccc(Cl)cc3CCc3cccnc32)CC1" ?
// result -20.3

// query So what does the record say about activity, negative = cell killing for "N[C@@H]1CONC1=O" ?
// result -0.848

// query Returns the measured activity, negative = cell killing for the input compound. Input: CC(c1cc2ccccc2s1)N(O)C(N)=O (stereo not given)
// result -18.9

// query // returns reported activity, negative = cell killing for input "CNC[C@H](O)c1cccc(O)c1"
// result -5.24

// query Requested field: activity, negative = cell killing. Item: "C1COC(NC(C2CC2)C2CC2)=N1"
// result -23.7

// query What value of measured activity, negative = cell killing is listed for "Cc1ccc(N(CC2=NCCN2)c2cccc(O)c2)cc1" ?
// result -7.27

----------
- System: HEK293T
- Protocol: qHTS assay to identify novel small-molecules to repurpose for Merkel cell carcinoma treatment (AID 1296009); note: nearly all actives have a fitted effect of over 60% in size
- Settings: MCC and control cell lines, CellTiter-Glo viability, 72 h; at 44.8 µM (top of the series)
Results filed as inconclusive are left out. Active and inactive are the calls of the source. Calls come from the whole dose curve; as a rule, active = well fitted inhibition curve with a large enough effect; inconclusive = small, poorly fitted or top-dose-only effect; inactive = flat fitted curve, though single readings scatter.
Readout: outcome

Here's what some known entries look like.
// query Which outcome reading was recorded for the compound "O=C(O)CCc1ccc(NCc2cccc(Oc3ccccc3)c2)cc1" ?
// result inactive

// query // returns reported outcome for input Cc1c(C)c2c(c(C)c1O)CCC(C)(COc1ccc(CC3SC(=O)NC3=O)cc1)O2 (configuration not stated)
// result inactive

// query For the compound shown here, "CC(=O)Oc1ccccc1C(=O)O" , give the reported outcome.
// result inactive

// query # lookup: outcome of "CN1CCN(CCCN2c3ccccc3Sc3ccc(C(F)(F)F)cc32)CC1"
// result inactive

// query What value of outcome has been reported for the following compound? CCN(CC)CCCC(C)Nc1ccnc2cc(Cl)ccc12 (configuration not stated)
// result inactive

Next:
// query Item under review: "NC(=O)c1ccc(I)c([N+](=O)[O-])c1" . Reported outcome?
// result inactive

----------
- Protocol: qHTS of pediatric cancer cell lines to identify multiple opportunities for drug repurposing: Primary screen for LAN-5 cells (AID 1347100)
- Settings: LAN-5 neuroblastoma viability, CellTiter-Glo luminescence, 48 h; series mostly up to 46 µM
Inconclusive results are not listed. Activity calls are given as the source filed them. Calls come from the whole dose curve; as a rule, active = well fitted cell-killing curve with a large enough effect; inconclusive = small, poorly fitted or top-dose-only effect; inactive = no such curve, though single readings can be large or run the other way.
Your reply should match one of these outcome classes. active, inactive

These recorded examples may help you get a feel for the data.
// query Which result was noted for this compound in the test: "OCCC#Cc1nc(-c2ccc(F)cc2)c(-c2ccncc2)n1CCCc1ccccc1"
// result active

// query Record lookup: outcome of this test for CCC(C)N(C)C(=O)c1cc2ccccc2c(-c2ccccc2Cl)n1 (stereo not given) ?
// result inactive

// query Hello, I am checking results. What call was entered for "CC[C@H](Nc1ncnc2nc[nH]c12)c1nc2cccc(F)c2c(=O)n1-c1ccccc1" ?
// result active

***
// query Dear all, I need the recorded test outcome for "Cc1cn[nH]c1" , thank you.
// result inactive

// query Dear all, I need the recorded test outcome for "CN(C)c1ccc(Nc2nc(N)n(C(=O)c3c(F)cccc3F)n2)cc1" , thank you.
// result active

// query Check the results log: what was the call for "C[C@]12CC[C@H](O)CC1=CC[C@@H]1[C@H]2CC[C@]2(C)C(c3cccnc3)=CC[C@H]12" ?
// result inactive

// query Assay result, entry "COc1ccc(C2=N[C@H](c3ccc(Cl)cc3)[C@H](c3ccc(Cl)cc3)N2C(=O)N2CCNC(=O)C2)c(OC(C)C)c1" — outcome?
// result active

// query Outcome logged for "CNC[C@H](O)c1cccc(O)c1" in this assay:
// result inactive

// query Entry "Cc1cnc(Nc2ccc(OCCN3CCCC3)cc2)nc1Nc1cccc(S(=O)(=O)NC(C)(C)C)c1" : call = ?
// result inactive

// query Please share the test call associated with "NS(=O)(=O)c1cc2c(cc1Cl)NC=NS2(=O)=O" .
// result inactive

----------
- Protocol: qHTS Screen of the MIPE 4.0 Collection Against Ewings Sarcoma (TC71) (AID 1259253); note: nearly all actives have a fitted effect of over 40% in size
- Settings: TC71 Ewing sarcoma viability, CellTiter-Glo, 48 h; series mostly up to 45.8 µM
Inconclusive results are not listed. Activity calls are given as the source filed them. The call rests on the fitted dose curve; in most records, active means well fitted inhibition curve with a large enough effect; inconclusive means small, poorly fitted or top-dose-only effect; inactive means no such curve, though single readings can be large or run the other way.
Classes to choose from: active, inactive

Reference set (5 entries):
// query Hi, sorry to bother you, what did the test record for "CCn1c(-c2nonc2N)nc2cnc(Oc3cccc(NC(=O)c4ccc(OCCN5CCOCC5)cc4)c3)cc21" ?
// result active

// query Tell me the assay call for "COc1ccccc1[C@H](c1cccc2ccccc12)[C@@](C)(C#N)C(=O)N1CCC(c2cccc(C(F)(F)F)c2)CC1" please.
// result active

// query Hey, what did the test say about "c1ccc([C@H]2CN3CCSC3=N2)cc1" ?
// result inactive

// query In this assay, the call recorded for COc1ccc(CC2=NN3C([C@@H](CCc4ccccc4)[C@@H](C)O)=NC(C)C3C(=O)N2)cc1OC (some centres not stated) was what?
// result inactive

// query For "NC(=O)c1cnccn1" , which call appears in the assay record?
// result inactive

Further cases:
// query Outcome? "Cc1cc(Nc2nc(N[C@@H](C)c3ncc(F)cn3)ncc2Cl)n[nH]1"
// result active

// query // return assay outcome for "CC(C)(Sc1ccc(CCN(CCCCC2CCCCC2)C(=O)NC2CCCCC2)cc1)C(=O)O"
// result inactive

// query Write down the call the test reported for this compound. Item: "Cc1cnc(Nc2ccc(OCCN3CCCC3)cc2)nc1Nc1cccc(S(=O)(=O)NC(C)(C)C)c1"
// result inactive

// query Check the results log: what was the call for "N#CC[C@H](C1CCCC1)n1cc(-c2ncnc3[nH]ccc23)cn1" ?
// result active

// query Give the logged outcome of this assay for the following compound: "O=NN(CCCl)C(=O)NCCCl"
// result inactive

// query Recorded test outcome, item CC(C[N+](C)(C)C)OC(N)=O (configuration not stated)
// result inactive

// query Record request — test call for "C[C@]12CC[C@H](O)CC1=CC[C@@H]1[C@H]2CC[C@]2(C)C(c3cccnc3)=CC[C@H]12"
// result inactive

// query # lookup: test call for O=C(O)COCCN1CCN(C(c2ccccc2)c2ccc(Cl)cc2)CC1 (configuration not stated)
// result inactive

// query Check the results log: what was the call for Oc1ccc(C2CNCCc3c2cc(O)c(O)c3Cl)cc1 (configuration not stated) ?
// result inactive

// query Could you kindly confirm the outcome this assay logged for "NC(=O)c1ccc(-c2nc(-c3ccc4c(c3)OCCO4)c(-c3ccccn3)[nH]2)cc1" ?
// result active

// query How did this test come out for "NCCc1ccc(O)c(O)c1" ?
// result active

// query Assay outcome for "Cc1cc2c(F)c(Oc3ncnn4cc(OC[C@@H](C)O)c(C)c34)ccc2[nH]1" : what was it?
// result active

// query For "Cc1csc(NC(=O)c2sc3nc4c(c(C(F)(F)F)c3c2N)CCC4)n1" , which call appears in the assay record?
// result active

// query Could you check what this test reported for CCN(CC)CCCC(C)Nc1ccnc2cc(Cl)ccc12 (configuration not stated) ?
// result inactive

// query Just curious, what result did "NC(N)=NC(=O)c1nc(Cl)c(N)nc1N" get here?
// result inactive

// query Recorded call for "Oc1cccc(-c2nc(N3CCOCC3)c3oc4ncccc4c3n2)c1" ?
// result active

// query Call for entry "CCOC(=O)N1CCC(=C2c3ccc(Cl)cc3CCc3cccnc32)CC1" :
// result active

----------
- Protocol: Quantitative High-Throughput drug screen in 47 multiple myeloma cell lines against the NCATS MIPE library collection: KMS20_JCRB cell viability assay (AID 1918973); note: nearly all actives have a fitted effect of over 45% in size
- Settings: CellTiter-Glo ATP, 48 h; series mostly up to 45.8 µM
Records with an inconclusive call do not appear. Active and inactive are the calls of the source. Calls follow the shape of the dose curve; as a rule, active = well fitted cell-killing curve with a large enough effect; inconclusive = small, poorly fitted or top-dose-only effect, or effect the other way; inactive = no such curve, though single readings can be large or run the other way.
Write down one outcome, taken from y = active, n = inactive

// query Record lookup: outcome of this test for "OCCC#Cc1nc(-c2ccc(F)cc2)c(-c2ccncc2)n1CCCc1ccccc1" ?
// result y

// query Per the assay record, what outcome was assigned to CCC(C)N(C)C(=O)c1cc2ccccc2c(-c2ccccc2Cl)n1 (stereo not drawn) ?
// result n

// query # outcome recorded in this test, key = "Cn1cnc2c(F)c(Nc3ccc(Br)cc3Cl)c(C(=O)NOCCO)cc21"
// result y

Lab note: next compound to report on.
// query For "CS(=O)(=O)c1cccc(CNc2nc(Nc3ccc4c(c3)CCC(=O)N4)ncc2C(F)(F)F)c1" , which call appears in the assay record?
// result y

Data provenance: PubChem BioAssay (NCATS)
